Catalogue of inhibition readings, one per entry.
- targetOfAssay: Acid ceramidase (Homo sapiens) (UniProt Q13510)
- Sequence (Q13510 22-142 limits assumed): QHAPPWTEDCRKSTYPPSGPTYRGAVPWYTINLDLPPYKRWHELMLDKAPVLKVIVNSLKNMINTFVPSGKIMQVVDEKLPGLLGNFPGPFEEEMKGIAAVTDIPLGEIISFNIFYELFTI
- Sequence (Q13510 143-395 limits assumed): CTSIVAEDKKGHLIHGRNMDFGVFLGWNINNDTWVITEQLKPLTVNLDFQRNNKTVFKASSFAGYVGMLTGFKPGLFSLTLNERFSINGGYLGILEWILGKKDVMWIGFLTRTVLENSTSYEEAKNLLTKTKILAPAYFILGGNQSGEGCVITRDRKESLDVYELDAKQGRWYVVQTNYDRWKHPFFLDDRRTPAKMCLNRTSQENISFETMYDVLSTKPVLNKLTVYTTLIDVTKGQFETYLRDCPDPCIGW
- measurementNotes: Inhibition of acid ceramidase in human MCF7 cell lysate at 50 uM by scintillation counting
- Type: cell-free
reportedMetric: inhibition (%)

>>> print(df.to_string())
                                  smilesstr  measuredvalue
0  O=C(CCCCCCCCCCCN1CCOCC1)N[C@H](CO)[C@H](O)c1ccc([N+](=O)[O-])cc1              5
1  CN(C)CCCCCCCCCCCC(=O)N[C@H](CO)[C@H](O)c1ccc([N+](=O)[O-])cc1             55
2  CCCCCCCCNCCCCCC(=O)N[C@H](CO)[C@H](O)c1ccc([N+](=O)[O-])cc1              5
3  CCCCCCCCCCCCCC(=O)N[C@H](CO)[C@H](O)c1ccc([N+](=O)[O-])cc1             90
